- System: Hepatotoxicity
- protocol.summary: FDA HLAED, alkaline phosphatase increase
- measurement.parameters: human
readout.kind: Alkaline Phosphatase Increase - Activity Score

{"molecule": "O=C(O)COCCN1CCN(C(c2ccccc2)c2ccc(Cl)cc2)CC1 (configuration not stated) [CETIRIZINE]", "result.value": "Inactive"}
{"molecule": "CC1(C)O[C@@H]2C[C@H]3[C@@H]4C[C@H](F)C5=CC(=O)C=C[C@]5(C)[C@H]4[C@@H](O)C[C@]3(C)[C@]2(C(=O)CO)O1 [FLUNISOLIDE]", "result.value": "Inactive"}
{"molecule": "C[N+](C)(C)C[C@H](O)CC(=O)[O-] [LEVOCARNITINE]", "result.value": "Inactive"}
{"molecule": "Nc1nc(/C(=C/CC(=O)O)C(=O)N[C@@H]2C(=O)N3C(C(=O)O)=CCS[C@H]23)cs1 [CEFTIBUTEN]", "result.value": "Inactive"}
{"molecule": "COc1cc2c(cc1OC)[C@@H](Cc1cc(OC)c(OC)c(OC)c1)[N+](C)(CCCOC(=O)CC/C=C/CCC(=O)OCCC[N+]1(C)CCc3cc(OC)c(OC)cc3[C@H]1Cc1cc(OC)c(OC)c(OC)c1)CC2.[Cl-].[Cl-] (some centres not stated) [MIVACURIUM CHLORIDE]", "result.value": "Inactive"}
{"molecule": "CO/N=C(\\C(=O)N[C@@H]1C(=O)N2C(C(=O)[O-])=C(C[N+]3(C)CCCC3)CS[C@H]12)c1csc(N)n1", "result.value": "Inactive"}

Attribution: ChEMBL document CHEMBL1697781
